- Test system: melanoma cell line RPMI-7951
- PROTOCOL DETAILS: Cytotoxicity in cancer cell lines (CellTiter-Glo), RPMI-7951
- Type: cell-based
- STATED CONDITIONS: Homo sapiens, RPMI-7951, 72 h, read-out: Cytotoxicity EC50 at 72 hours, RPMI
Known log10(EC50) of a selection of molecules
Please note: log10 values; quantity EC50; unit µM.

Sample answers from the record:
- MOLECULE: "O=C(COC1C=CS(=O)(=O)C1)c1ccc(-c2ccccc2)cc1 (centres unmarked) [(9)]"
  log10(EC50): 1.00
- MOLECULE: "O=C(Nc1ccc2ccccc2c1)OC1C=CS(=O)(=O)C1 (centres unmarked) [(10)]"
  log10(EC50): 1.45
- MOLECULE: "O=C(NC1C=CS(=O)(=O)C1)c1ccc2ccccc2c1 (centres unmarked) [(14)]"
  log10(EC50): 0.97

Attention now shifts to the item below.
-- ask Form field: reported log10(EC50) of O=S1(=O)C=CC(OCc2ccc3ccccc3c2)C1 (centres unmarked) [(4)]
-- reply 1.41
